Field: kon. Provide a value for each of the binders that follow.
target or test system: T1, Polyhistidine-tagged recombinant human UCH-L1 expressed from E. coli (human, UniProt P09936 1-223, limits assumed)
T1 construct: also called UCH-L1-His; not shown: polyhistidine tag
T1 sequence (P09936 whole entry): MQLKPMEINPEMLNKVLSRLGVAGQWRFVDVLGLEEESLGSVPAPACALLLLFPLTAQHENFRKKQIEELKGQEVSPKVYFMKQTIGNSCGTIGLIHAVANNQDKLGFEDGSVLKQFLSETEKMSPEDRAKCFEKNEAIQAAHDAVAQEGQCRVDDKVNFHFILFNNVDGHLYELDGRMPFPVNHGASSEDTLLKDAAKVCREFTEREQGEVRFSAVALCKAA
experiment summary: BLI (Octet QKe); His-tagged UCH-L1 on anti-Penta-HIS sensor, antibody in solution
Entry rule: numbers only, all in M⁻¹ s⁻¹.

# lookup: kon of UCH-L1-7 (antibody, V domains shown, also called mouse anti-UCH-L1 antibody UCH-L1-7) VH: EVQLQQSGPELVKPGASVKISCKTSGYTFTEYTMHWVKQSHGKSLDWIGGINPNNGRTSYNQKFKGKATLTVDKSSSTAYMELRSLTSEDSAVYYCARRLGRGFYFDYWGQGTTLTVSS VL: DIVLTQSPASLAVSLGQRATISCRASESVDSYGNNLMHWYQQKPGQPPKLLIYLSSNLESGIPARFSGRGSRTDFTLTINPVEADDVATYYCQQSNGDPYTFGGGTKLEIK
133000

Please do the same for UCH-L1-8 (antibody, V domains shown, also called mouse anti-UCH-L1 antibody UCH-L1-8) VH: EVQLQQSGPDLVKPGTSVKISCKTSGYTFTEYTMHWVKQSHGRSLEWIGGLNPNNGRTSYNQKFKGKATLTVDKSSSIAYMELRSLTSEDSAVYYCARRLGRGFYFDYWGQGTTLTVSS VL: DIVLTQSPASLAVSLGQRATISCRASESVDSYGNNLMHWYQQKPGQSPKLLIYRASNLESGIPGRFSGRGSRTDFTLTINPVEADDVATYYCQQSNGDPYTFGGGTKLEIK as well.
141000

Please do the same for UCH-L1-6 (antibody, V domains shown, also called mouse anti-UCH-L1 antibody UCH-L1-6) VH: EVQLQQSGPELVKPGASVKISCKTSGYTFTEYTMHWVKQSHGKSLDWIGGINPNNGRTSYNQKFKGKATLTVDKSSSTAYMDFRSLTSEDSAVYYCARRLGRGFYFDYWGQGTTLTVSS VL: DIVLTQSPASLAVSLGQRATISCRASESVESYGNNLIHWYQQKLGQPPKLLIYLSSNLEPGIPARFSGRGSRTDFTLTINPVEADDVATYYCQQSNGDPYTFGGGTKLEIR as well.
145000
